The entries below come with measured Kd values attached.
- TARGET OR TEST SYSTEM: T1, human PRLR (Biacore antigen) (human, UniProt P16471 25-234, limits assumed)
- T1 construct: The construct injected over captured antibody is not described (a soluble form is likely); also called huPRLR
- T1 sequence: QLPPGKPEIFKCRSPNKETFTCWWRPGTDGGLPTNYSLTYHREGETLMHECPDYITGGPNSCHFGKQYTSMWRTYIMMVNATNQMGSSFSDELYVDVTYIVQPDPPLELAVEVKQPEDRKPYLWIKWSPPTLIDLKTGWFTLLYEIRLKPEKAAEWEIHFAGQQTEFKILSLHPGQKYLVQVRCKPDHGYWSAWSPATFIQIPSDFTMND
- ASSAY REMARKS: SPR Biacore
Mention the unit after the number when you answer.

{"BINDER": "Ab18 (antibody, human IgG1, kappa, V domains shown, humanized from Ab6; G1; also called Ab1 HC.1a and Ab1 LC.1) VH: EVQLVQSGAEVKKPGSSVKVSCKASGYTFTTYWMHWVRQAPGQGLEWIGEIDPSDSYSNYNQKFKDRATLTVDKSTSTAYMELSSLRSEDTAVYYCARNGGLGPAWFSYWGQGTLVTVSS VL: DIQMTQSPSSVSASVGDRVTITCKASQYVGTAVAWYQQKPGKAPKLLIYSASNRYTGVPSRFSGSGSGTDFTLTISSLQPEDFATYYCQQYSSYPWTFGGGTKVEIKR", "Kd": "1.62 nM"}
{"BINDER": "Ab53 (antibody, human IgG1, kappa, V domains shown, humanized from Ab7 (back mutations on Ab36); G1; also called Ab4 HC.1b.2 and Ab4 LC.1a) VH: EVQLVQSGAEVKKPGSSVKVSCKASGYTFTSYWIHWVRQAPGQGLEWIGEIDPSDSYTNYNQKFKGRVTITVDKSTSTAYMELSSLRSEDTAVYYCARSFFTNWFAYWGQGTLVTVSS VL: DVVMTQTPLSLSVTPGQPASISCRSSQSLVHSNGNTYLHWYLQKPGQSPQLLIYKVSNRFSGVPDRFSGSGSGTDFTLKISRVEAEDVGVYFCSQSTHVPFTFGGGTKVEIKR", "Kd": "8.5 nM"}

// next entry
query: Any idea what Kd was measured for chAb7 (antibody, human IgG1, kappa, V domains shown, chimeric, murine variable and human G1/kappa constant regions) VH: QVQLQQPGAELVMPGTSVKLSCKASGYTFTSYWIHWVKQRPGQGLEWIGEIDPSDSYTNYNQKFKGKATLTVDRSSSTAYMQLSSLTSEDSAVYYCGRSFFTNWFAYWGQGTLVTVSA VL: DVVMTQTPLSLPVSLGDQASISCRSSQSLVHSNGNTYLHWYLQKPGQSPKLLIYKVSNRFSGVPDRFSGSGSGTDFTLKINRVEAEDLGVYFCSQSTHVPFTFGSGTKLEIKT ?
result: 0.18 nM
